Source listed as the supplement of paper PMC4862054.

compounds and their reported normalised response
Test system: BT-549
Assay: normalised response (% of control), CellTiter-Glo; higher = more viable cells (100 = DMSO, 0 = benzethonium chloride kill control)
Details: incubation time: 72 h
measured-parameter: normalised response

compound | measured-parameter | value
CS(=O)(=O)c1ccc(C2=C(c3ccccc3)C(=O)OC2)cc1 [Rofecoxib] (1000 nM) | normalised response | 95.4%
COc1cc([C@@H]2c3cc4c(cc3[C@@H](O[C@@H]3O[C@@H]5CO[C@@H](C)O[C@H]5[C@H](O)[C@H]3O)[C@H]3COC(=O)[C@H]23)OCO4)cc(OC)c1O [Etoposide] (10 nM) | normalised response | 97.8%
O=C(O)c1ccc(-c2c[nH]c3ncc(-c4ccccc4)cc23)cc1C1CCCC1 (1000 nM) | normalised response | 100%
C[C@]12CC[C@@H]3c4ccc(O)cc4C[C@@H](CCCCCCCCC[S+]([O-])CCCC(F)(F)C(F)(F)F)[C@H]3[C@@H]1CC[C@@H]2O (some centres not stated) [Fulvestrant] (0.1 nM) | normalised response | 109%
C[C@]12CC[C@@H]3c4ccc(O)cc4C[C@@H](CCCCCCCCC[S+]([O-])CCCC(F)(F)C(F)(F)F)[C@H]3[C@@H]1CC[C@@H]2O (some centres not stated) [Fulvestrant] (1 nM) | normalised response | 98.4%
CCC(C)(C)C(=O)O[C@H]1C[C@@H](C)C=C2C=C[C@H](C)[C@H](CC[C@@H]3C[C@@H](O)CC(=O)O3)[C@H]21 [Simvastatin] (1 nM) | normalised response | 98.9%
O=C(O)c1ccc(-c2c[nH]c3ncc(-c4ccccc4)cc23)cc1C1CCCC1 (1 nM) | normalised response | 103%

* * *

compounds and their reported normalised viability
Test system: MDA-MB-436
Test: normalised viability (% of control), CellTiter-Blue; higher = more viable cells (about 100 = DMSO control)
Conditions: 10 nM; incubation time: 72 h

compound | normalised viability (%)
N.N.[Cl][Pt][Cl] [Cisplatin] | 102
CNCc1ccc(-c2[nH]c3cc(F)cc4c3c2CCNC4=O)cc1 [Rucaparib] | 103
C#Cc1cccc(Nc2ncnc3cc(OCCOC)c(OCCOC)cc23)c1 [Erlotinib] | 108
Cn1c(CCCC(=O)O)nc2cc(N(CCCl)CCCl)ccc21 [Bendamustine] | 94.7
Oc1nc(-c2ccc(C(F)(F)F)cc2)nc2c1CSCC2 [XAV-939] | 122
CCC1=C[C@@H]2CN(C1)Cc1c([nH]c3ccccc13)[C@@](C(=O)OC)(c1cc3c(cc1OC)N(C)[C@H]1[C@@](O)(C(=O)OC)[C@H](OC(C)=O)[C@]4(CC)C=CCN5CC[C@]31[C@@H]54)C2 [Vinorelbine] | 109
CC1(C)NC(=O)N(c2ccc([N+](=O)[O-])c(C(F)(F)F)c2)C1=O [Nilutamide] | 113
COc1cc([C@@H]2c3cc4c(cc3[C@@H](O[C@@H]3O[C@@H]5CO[C@@H](C)O[C@H]5[C@H](O)[C@H]3O)[C@H]3COC(=O)[C@H]23)OCO4)cc(OC)c1O [Etoposide] | 99.8

* * *

Tested on: Hs578T
Test: normalised viability (% of control), CellTiter-Blue; higher = more viable cells (about 100 = DMSO control)
Conditions: 10000 nM; incubation time: 72 h
molecules and their reported normalised viability

molecule | unit-abbrev | normalised viability
NCC(=O)CCC(=O)O | % | 96.3
CN(C)/N=N/c1[nH]cnc1C(N)=O | % | 94.8
CNCc1ccc(-c2[nH]c3cc(F)cc4c3c2CCNC4=O)cc1 | % | 94.4
O=P1(NCCCl)OCCCN1CCCl (stereo not given) [Ifosfamide] | % | 115
CC1(C)NC(=O)N(c2ccc([N+](=O)[O-])c(C(F)(F)F)c2)C1=O [Nilutamide] | % | 119
Cn1c(CCCC(=O)O)nc2cc(N(CCCl)CCCl)ccc21 | % | 97.7
CCC1=C[C@@H]2CN(C1)Cc1c([nH]c3ccccc13)[C@@](C(=O)OC)(c1cc3c(cc1OC)N(C)[C@H]1[C@@](O)(C(=O)OC)[C@H](OC(C)=O)[C@]4(CC)C=CCN5CC[C@]31[C@@H]54)C2 | % | 15.9
CN(N=O)C(=O)N[C@@H](C=O)[C@@H](O)[C@H](O)[C@H](O)CO | % | 101
COc1cc([C@@H]2c3cc4c(cc3[C@@H](O[C@@H]3O[C@@H]5CO[C@@H](C)O[C@H]5[C@H](O)[C@H]3O)[C@H]3COC(=O)[C@H]23)OCO4)cc(OC)c1O [Etoposide] | % | 52.4
N.N.[Cl][Pt][Cl] [Cisplatin] | % | 122

* * *

System: BT-474
Experiment: normalised response (% of control), CellTiter-Glo; higher = more viable cells (100 = DMSO, 0 = benzethonium chloride kill control)
Conditions: incubation time: 72 h

compound | unit-abbrev | normalised response
CN[C@@H]1C[C@H]2O[C@@](C)([C@@H]1OC)n1c3ccccc3c3c4c(c5c6ccccc6n2c5c31)C(=O)N[C@H]4O [UCN-01] (100 nM) | % | 33.1
CS(=O)(=O)c1ccc(C2=C(c3ccccc3)C(=O)OC2)cc1 [Rofecoxib] (100 nM) | % | 101
Cc1ccc(-n2nc(C(C)(C)C)cc2NC(=O)Nc2ccc(OCCN3CCOCC3)c3ccccc23)cc1 [Doramapimod] (100 nM) | % | 94.2
C=C(c1ccc(C(=O)O)cc1)c1cc2c(cc1C)C(C)(C)CCC2(C)C [Bexarotene] (100 nM) | % | 109
CCC(C)(C)C(=O)O[C@H]1C[C@@H](C)C=C2C=C[C@H](C)[C@H](CC[C@@H]3C[C@@H](O)CC(=O)O3)[C@H]21 [Simvastatin] (100 nM) | % | 97.5
Cc1ccc(C(=O)Nc2ccc(CN3CCN(C)CC3)c(C(F)(F)F)c2)cc1C#Cc1cnc2cccnn12 [Ponatinib] (10 nM) | % | 105

* * *

System: CAL-120
Experiment: normalised response (% of control), CellTox Green; higher = less cell death (100 = DMSO, 0 = benzethonium chloride kill control)
Settings: incubation time: 72 h

compound | unit-abbrev | normalised response
COc1cc([C@@H]2c3cc4c(cc3[C@@H](O[C@@H]3O[C@@H]5CO[C@@H](C)O[C@H]5[C@H](O)[C@H]3O)[C@H]3COC(=O)[C@H]23)OCO4)cc(OC)c1O [Etoposide] (10000 nM) | % | 75.7
CC(C)Cn1cnc2c(N)nc3ccccc3c21 [Imiquimod] (2500 nM) | % | 96.6
Cc1ccc(C(=O)N(CCCN)[C@@H](c2oc3cc(Cl)ccc3c(=O)c2Cc2ccccc2)C(C)C)cc1 (100 nM) | % | 98.8
CC(C)Cn1cnc2c(N)nc3ccccc3c21 [Imiquimod] (25 nM) | % | 96.9

* * *

molecules and their reported normalised response
Tested on: HCC1937
Test: normalised response (% of control), CellTiter-Glo; higher = more viable cells (100 = DMSO, 0 = benzethonium chloride kill control)
Details: incubation time: 72 h

molecule | tested-target | unit-abbrev | normalised response
O=C1CCC(N2C(=O)c3ccccc3C2=O)C(=O)N1 (configuration not stated) [Thalidomide] (10000 nM) | HCC1937 | % | 98
CC(C)Cn1cnc2c(N)nc3ccccc3c21 [Imiquimod] (2500 nM) | HCC1937 | % | 99.6
CCC1(c2ccc(N)cc2)CCC(=O)NC1=O (configuration not stated) [Aminoglutethimide] (10000 nM) | HCC1937 | % | 94.5
CCCCCCCCCCCCCCCCCCOP(=O)([O-])OC1CC[N+](C)(C)CC1 [Perifosine] (2500 nM) | HCC1937 | % | 52.7
O=P1(NCCCl)OCCCN1CCCl (configuration not stated) [Ifosfamide] (10000 nM) | HCC1937 | % | 96.5
Clc1ccc(Nc2nnc(Cc3ccncc3)c3ccccc23)cc1 [Vatalanib] (10000 nM) | HCC1937 | % | 96
O=C(O)c1ccc(-c2c[nH]c3ncc(-c4ccccc4)cc23)cc1C1CCCC1 (10000 nM) | HCC1937 | % | 105

* * *

System: CAL-120
Settings: 72 h

structure-string | EC50, CellTiter-Blue viability / nM
CN[C@@H]1C[C@H]2O[C@@](C)([C@@H]1OC)n1c3ccccc3c3c4c(c5c6ccccc6n2c5c31)C(=O)N[C@H]4O | 24.5
C[C@@H](Oc1cc(-c2cnn(C3CCNCC3)c2)cnc1N)c1c(Cl)ccc(F)c1Cl | 2640
Cn1c(Nc2ccc(C(F)(F)F)cc2)nc2cc(Oc3ccnc(-c4ncc(C(F)(F)F)[nH]4)c3)ccc21 | 77.8
CCC1=C[C@@H]2CN(C1)Cc1c([nH]c3ccccc13)[C@@](C(=O)OC)(c1cc3c(cc1OC)N(C)[C@H]1[C@@](O)(C(=O)OC)[C@H](OC(C)=O)[C@]4(CC)C=CCN5CC[C@]31[C@@H]54)C2 | 22.5
